Tested on: VZV strain Ellen
Assay: VZV Antiviral (ELISA) Assay
Format: cell-based, varicella-zoster virus
Settings: Human alphaherpesvirus 3, Fibroblast, read-out: % inhibition 10 ug/ml VZV, 10 ug/ml; human foreskin fibroblast cells
This listing pairs molecules with measured inhibition at 10 µg/mL.

molecule	unit_abbreviation	inhibition at 10 µg/mL
CCCCCCN(C)c1ccc(NC(=S)Nc2ccc(NC(C)=O)cc2)cc1Cl [Example 906]	%	32
COc1cc(OC)c(NC(=S)Nc2ccc(NC(C)=O)cc2C#N)cc1Cl [Example 383]	%	38
CC(=O)Nc1ccc(NC(=S)Nc2ccc(CCO)c(Cl)c2)cc1 [Example 864]	%	21
COc1c(NC(=S)Nc2ccc(NC(C)=O)cc2)cc(Cl)c(C)c1Cl [Example 876]	%	58
COc1cc(OC)c(NC(=S)Nc2ccc(NC(C)=O)cc2C(F)(F)F)cc1Cl [Example 358]	%	31

###

Tested on: VZV strain Ellen
Experiment: VZV Antiviral (ELISA) Assay
Assay type: cell-based, varicella-zoster virus
Conditions: Human alphaherpesvirus 3, Fibroblast, read-out: % inhibition 10 ug/ml VZV, 10 ug/ml; human foreskin fibroblast cells
# inhibition at 10 µg/mL >= 30% gives Met, anything below gives Not met

compound	assay_system	discrete_label
COc1cc(OCC#N)c(Cl)cc1NC(=S)Nc1ccc(NC(C)=O)cc1 [Example 212]	VZV strain Ellen	Not met
CC(=O)Nc1ccc(NC(=S)Nc2ccc(F)c(Cl)c2)cc1 [Example 902]	VZV strain Ellen	Not met
C=Cc1ccc(NC(=S)Nc2ccc(NC(C)=O)cc2)cc1Cl [Example 377]	VZV strain Ellen	Not met
CCCCOc1cc(OC)c(Cl)cc1NC(=S)Nc1ccc(NC(C)=O)cc1 [Example 833]	VZV strain Ellen	Met
CC(=O)Nc1ccc(NC(=S)Nc2cccc([N+](=O)[O-])c2)cc1 [Example 124]	VZV strain Ellen	Not met
COc1cc(OC)c(NC(=S)Nc2cc(C)c(NC(C)=O)cc2Cl)cc1Cl [Example 326]	VZV strain Ellen	Not met
CC(=O)Nc1ccc(NC(=S)Nc2cc(C)c(O)c(Cl)c2)cc1 [Example 128]	VZV strain Ellen	Met
CC(=O)Nc1ccc(NC(=S)Nc2cc(Cl)c(C)c(Cl)c2)cc1 [Example 892]	VZV strain Ellen	Not met
CC(=O)Nc1ccc(NC(=S)Nc2ccc(OC(=O)c3ccccc3)cc2O)cc1 [Example 113]	VZV strain Ellen	Met

###

Tested on: VZV strain Ellen
Test: VZV Antiviral (ELISA) Assay
Type: cell-based, varicella-zoster virus
Details: Human alphaherpesvirus 3, Fibroblast, read-out: % inhibition 10 ug/ml VZV, 10 ug/ml; human foreskin fibroblast cells
Protocol: For the generation of stock VZV to be used in the assay, VZV strain Ellen (ATCC #VR-1367) is used to infect human foreskin fibroblast (HFF) cells at low multiplicity (less than 0.1) and incubated overnight at 37° C. in 5% CO2. […] Antiviral activity (IC50) of the test compound is determined by comparing the flourescence obtained in absence of compound to that obtained in the presence of compound.

compound	assay_system	inhibition at 10 µg/mL
CCN(CC)c1ccc(NC(=S)Nc2ccc(NC(C)=O)cc2)cc1Cl [Example 202]	VZV strain Ellen	18%
CCCCOc1c(Cl)cc(NC(=S)Nc2ccc(NC(C)=O)cc2)cc1Cl [Example 177]	VZV strain Ellen	19%
COc1ccccc1NC(=S)Nc1ccc(NC(C)=O)cc1 [Example 105]	VZV strain Ellen	32%
CC(=O)Nc1ccc(NC(=S)Nc2ccc(NC(=O)CN3CCCCC3)c(Cl)c2)cc1 [Example 363]	VZV strain Ellen	58%
CC(=O)Nc1ccc(NC(=S)Nc2ccc(N3CCN(C)CC3)c(Cl)c2)cc1 [Example 243]	VZV strain Ellen	4%
COC(=O)COc1c(Cl)cc(NC(=S)Nc2ccc(NC(C)=O)cc2)cc1Cl [Example 883]	VZV strain Ellen	17%
CC(=O)Nc1ccc(NC(=S)Nc2ccccc2[N+](=O)[O-])cc1 [Example 878]	VZV strain Ellen	23%
CC(=O)Nc1ccc(NC(=S)Nc2cc(Cl)c(OCC#N)c(Cl)c2)cc1 [Example 886]	VZV strain Ellen	50%
COc1ccc(Cl)c(NC(=S)Nc2ccc(NC(C)=O)cc2)c1 [Example 881]	VZV strain Ellen	12%
CC(=O)Nc1ccc(NC(=S)Nc2ccc(OCCCN(C)C)c(Cl)c2)cc1 [Example 336]	VZV strain Ellen	17%
COc1c(Cl)cc(NC(=S)Nc2ccc(NC(C)=O)cc2)cc1Cl [Example 109]	VZV strain Ellen	27%
CC(=O)Nc1ccc(NC(=S)Nc2cc(Cl)c(OCC(=O)OC(C)(C)C)c(Cl)c2)cc1 [Example 887]	VZV strain Ellen	38%
CC(=O)Nc1ccc(NC(=S)Nc2ccc(N3CCCC3)c(Cl)c2)cc1 [Example 242]	VZV strain Ellen	20%
COc1ccc(NC(=S)Nc2ccc(NC(C)=O)cc2)cc1C(F)(F)F [Example 290]	VZV strain Ellen	1%
COc1cc(C)c(Cl)cc1NC(=S)Nc1ccc(NC(C)=O)cc1 [Example 199]	VZV strain Ellen	60%
CC(=O)Nc1ccc(NC(=S)Nc2cc(Cl)ccc2O)cc1 [Example 126]	VZV strain Ellen	23%
COc1cc(OC)c(NC(=S)Nc2ccc(NC(C)=O)c(C(=O)c3ccccc3)c2)cc1Cl [Example 292]	VZV strain Ellen	70%
CC(=O)Nc1ccc(NC(=S)Nc2ccc(N(C)C)c(Cl)c2)cc1 [Example 240]	VZV strain Ellen	5%
COc1ccc(NC(=S)Nc2ccc(NC(C)=O)cc2)c(NCc2ccccc2)c1 [Example 245]	VZV strain Ellen	73%
CC(=O)Nc1ccc(NC(=S)Nc2ccc(OC3CCN(C)C3)c(Cl)c2)cc1 (stereo not drawn) [Example 334]	VZV strain Ellen	7%
CCC(C)Oc1ccc(NC(=S)Nc2ccc(NC(C)=O)cc2)cc1Cl (stereo not drawn) [Example 252]	VZV strain Ellen	0%
CC(=O)Nc1ccc(NC(=S)Nc2ccc(OCCN(C)C)c(Cl)c2)cc1 [Example 343]	VZV strain Ellen	38%
CCN(c1ccc(NC(=S)Nc2ccc(NC(C)=O)cc2)cc1Cl)C1CCCCC1 [Example 267]	VZV strain Ellen	25%
CC(=O)Nc1ccc(NC(=S)Nc2cc(Cl)ccc2Cl)cc1 [Example 930]	VZV strain Ellen	42%
COc1ccc(NC(=S)Nc2ccc(NC(C)=O)cc2)cc1Cl [Example 106]	VZV strain Ellen	20%
CC(=O)Nc1ccc(NC(=S)Nc2ccc(OC3CCN(C)CC3)c(Cl)c2)cc1 [Example 335]	VZV strain Ellen	8%
CC(=O)Nc1ccc(NC(=S)Nc2cc(Cl)ccc2C)cc1 [Example 890]	VZV strain Ellen	20%
COc1ccc(NC(=S)Nc2ccc(NC(C)=O)cc2)cc1 [Example 104]	VZV strain Ellen	8%
CC(=O)Nc1ccc(NC(=S)Nc2ccc(Br)c(Cl)c2)cc1 [Example 904]	VZV strain Ellen	26%
CC(=O)Nc1ccc(NC(=S)Nc2ccc(-c3ccno3)c(Cl)c2)cc1 [Example 924]	VZV strain Ellen	4%
CC(=O)Nc1ccc(NC(=S)Nc2ccc(O)cc2O)cc1 [Example 130]	VZV strain Ellen	30%
COc1cc(OC)c(NC(=S)Nc2ccc(NC(C)=O)cc2)cc1Br [Example 150]	VZV strain Ellen	3%
COc1cc(NC(=S)Nc2ccc(NC(C)=O)cc2)cc(OC)c1OC [Example 151]	VZV strain Ellen	0%
CC(=O)Nc1ccc(NC(=S)Nc2ccc(I)c(Cl)c2)cc1 [Example 903]	VZV strain Ellen	26%
COc1cc(OC)c(NC(=S)Nc2ccc(NC(C)=O)c(OC)c2)cc1Cl [Example 274]	VZV strain Ellen	15%
CC(=O)Nc1ccc(NC(=S)Nc2ccc(N(C)C3CCN(Cc4ccccc4)C3)c(Cl)c2)cc1 (stereo not drawn) [Example 843]	VZV strain Ellen	50%
